The reported numbers originate from ChEMBL document CHEMBL1275380.

tested on: Mus musculus; assay: Toxicity in Swiss mouse assessed as mortality at 100 mg/kg, ip after 72 hrs; format: organism-based; set-up: dose 100 mg/kg, route intraperitoneal; conditions: in vivo
quantity measured: Activity

molecule="O=C(Cn1ccnc1[N+](=O)[O-])NCc1ccccc1 [BENZNIDAZOLE]" study_target="Mus musculus" quantity_measured=Activity val=Non-toxic
molecule="Cc1ccc(SC/C=N/N=C2\\NC(=S)C(C)S2)cc1 (configuration not stated)" study_target="Mus musculus" quantity_measured=Activity val=Toxic
molecule="CC1S/C(=N/N=C/CCSc2ccccc2)NC1=O (configuration not stated)" study_target="Mus musculus" quantity_measured=Activity val=Non-toxic
molecule="Cc1ccc(SC/C=N/N=C2\\NC(=O)C(C)S2)cc1 (configuration not stated)" study_target="Mus musculus" quantity_measured=Activity val=Non-toxic
molecule="CCC1S/C(=N/N=C/CSc2ccc(Br)cc2)NC1=O (configuration not stated)" study_target="Mus musculus" quantity_measured=Activity val=Non-toxic
molecule="CC1S/C(=N/N=C/CCSc2ccccc2)NC1=S (configuration not stated)" study_target="Mus musculus" quantity_measured=Activity val=Toxic
molecule=NC(=S)N/N=C/CSc1ccccc1 study_target="Mus musculus" quantity_measured=Activity val=Non-toxic
